Each recorded value in this set is attributed to patent US20250250357A1.

Molecular target: T1, human MSLN-FL-his protein (human, UniProt Q13421 296-580)
T1 construct: made in HEK293E cells, purified on nickel column; also called hMSLN-FL-his; human MSLN full-length protein; not shown: His tag
T1 sequence (Q13421 other isoform, or with tags, fused parts or gaps): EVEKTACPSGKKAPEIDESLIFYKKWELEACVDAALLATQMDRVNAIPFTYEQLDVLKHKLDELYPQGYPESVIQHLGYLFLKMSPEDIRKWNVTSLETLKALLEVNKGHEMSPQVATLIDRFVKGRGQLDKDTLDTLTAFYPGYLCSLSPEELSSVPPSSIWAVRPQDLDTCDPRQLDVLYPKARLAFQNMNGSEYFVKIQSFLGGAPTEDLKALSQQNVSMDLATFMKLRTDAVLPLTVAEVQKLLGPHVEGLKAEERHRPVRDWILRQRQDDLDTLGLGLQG
Assay: SPR (Biacore), antibody captured on Protein A chip;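 note: measured at 25 °C, analyte injected 240 s in five twofold dilutions from 200 nM, dissociation up to 600 s, double-referenced, fitted with Langmuir 1:1 model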
readout-type: log10 Kd (log10 of the value in nM)
Heads up, the numbers here are log10 of Kd in nM units.

binder	recorded-measurement
S009-F2.23.12 (antibody, human IgG1, kappa, V domains shown, human-murine chimeric antibody, human IgG1/kappa constant regions) VH: QVQLQQPGTELVKPGASVKLSCKASGYTFTNYWMHWVKQRPGQGLEWIGNINPSNGGPYYNERFRSKATLTVDKSSSTAYMQLSSLTSEDSAVYYCARPYYGSSYGYFDYWGQGTTLTVSS VL: DIQMTQSPSSLSASLGGKVTITCKASQDINKYIAWYQHKPGKGPRLLIHYTSELQPGIPSRFSGNGSGRDYSFSISNLEPEDIATYYCLQYANPLRTFGGGTKLEIKR	0.94
S009-F6-76.1 (antibody, human IgG1, kappa, V domains shown, human-murine chimeric antibody, human IgG1/kappa constant regions) VH: QVQLQQSGPELVKPGASVKISCKASGYTFTDYYINWVKQRPGQGLEWIGWIFPGRGSTFYYEKFKGKATLTVDKSSSTAYMLLSSLTSEDSAVYFCARRGDSAGYEDLDYWGQGTSVTVSS VL: NIVMTQSPKFMSMSVGERVTLSCKASENVVTYVSWYQQKPKQSPKLLIYGASKRYTGVPDRFTGSGSATDFTLTISSVQAEDLGDYHCGQSYSYPYTFGGGTKLEIKR	1.00
S009-F2.58.8 (antibody, human IgG1, kappa, V domains shown, human-murine chimeric antibody, human IgG1/kappa constant regions) VH: QVQLLQSGAELAKPGASVKLSCKASGYTFTSYWVHWVKQRPGQGLEWIGYINPNSGYTKYNQKFKDKATLTADKSSSTAYMQLSSLTYEDSAVYYCADHYYGSSRDYFDYWGQGTTLTVSS VL: QIVLTQSPAIMSASPGEKVTMTCSASSSVSYMYWYQQRPGSSPRLLIYDTSNLASGVPVRFSGSGSGTSYSLTISRMEAEDAATYYCQQWNSYPYTFGGGTKLEIKR	-0.28

Exam item: Need log10 Kd of S009-F6-62.5 (antibody, human IgG1, kappa, V domains shown, human-murine chimeric antibody, human IgG1/kappa constant regions) VH: QVQLQQPGTELVKPGASVKLSCRASGYTFTAYWMHWVKQRPGQGLEWIGNINPSNGGTDFNEKFKSKATLTVDKSSSTAYMQLSSLTSEDSAVYYCARGRGYFDVWGTGTTVTVSS VL: DILLTQSPAILSVSPGERVSFSCRASKNIGTSIHWYQQRTNGSPRLLIKYASESISGIPSRFSGSGSGTDFTLNINSVESEDIADYYCQQSNSWPTLTFGAGTKLELKR , thanks.
Marked response: 2.08

Exam item: What measured log10 Kd goes with S009-F2.47.1 (antibody, human IgG1, kappa, V domains shown, human-murine chimeric antibody, human IgG1/kappa constant regions) VH: QVQLQQPGAELVKPGASVKLSCKASGYTFTSYWMHWVKQRPGQGLEWIGMIHPNSGSTNYNEKFKSKATLTVDKSSSTAYMQLSSLTSEDSAVYYCARPVVPYWYFDVWGTGTTVTVSS VL: DIVMTQSQKFMSTTVGDRVSITCKASQNVGTAVAWYQQKPGQSPKLLIYSASNRYTGVPDRFTGSGSGTDFTLTISNMQSEDLADYFCQQSSSYPLTFGAGTKLELKR ?
Marked response: 0.71
